# Test system: Crude diglycosidase
# PROTOCOL_SUMMARY: Examination of pH in the conversion into isoflavone aglycons by diglycosidase using soybean materials
# Format: biochemical, Penicillium multicolor IAM7153
# CONDITIONS: pH5, heat treatment of enzyme no, reaction time 1 h, 55° C.
TEST_READOUT: Decomposition efficiency of daidzin family in roasted soy flour
Answer with the value's number alone.

# get_value(readout='Decomposition efficiency of daidzin family in roasted soy flour', item= CC(=O)OC[C@H]1O[C@@H](Oc2ccc3c(=O)c(-c4ccc(O)cc4)coc3c2)[C@H](O)[C@@H](O)[C@@H]1O )
38.5

Sample O=c1c(-c2ccc(O)cc2)coc2cc(O)ccc12 — what was its Decomposition efficiency of daidzin family in roasted soy flour?
61.5

====

For each of the compounds below, state its Decomposition efficiency: ratio of each glycoside/aglycon within its isoflavone family.
# Tested on: Crude diglycosidase
# PROTOCOL_SUMMARY: Examination of substrate concentration in the conversion into isoflavone aglycons by diglycosidase using soybean materials;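 further: percent of the isoflavone family total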
# Format: biochemical, Penicillium multicolor IAM7153
# CONDITIONS: roasted soy flour, substrate concentration 2%, heat treatment of enzyme no, reaction time 0 h
Answer by giving the amount and then stating its unit.

Item COc1cc2c(=O)c(-c3ccc(O)cc3)coc2cc1O[C@@H]1O[C@H](CO)[C@@H](O)[C@H](O)[C@H]1O [glycitin] has what recorded Decomposition efficiency: ratio of each glycoside/aglycon within its isoflavone family?
50.2%

Quick one: Decomposition efficiency: ratio of each glycoside/aglycon within its isoflavone family for O=c1c(-c2ccc(O)cc2)coc2cc(O[C@@H]3O[C@H](CO)[C@@H](O)[C@H](O)[C@H]3O)cc(O)c12 [genistin] ?
33.2%

What value of measured Decomposition efficiency: ratio of each glycoside/aglycon within its isoflavone family is listed for COc1cc2c(=O)c(-c3ccc(O)cc3)coc2cc1O[C@@H]1O[C@H](COC(C)=O)[C@@H](O)[C@H](O)[C@H]1O [acetylglycitin, 6″-O-acetylglycitin] ?
33.6%

Using the record for CC(=O)OC[C@H]1O[C@@H](Oc2cc(O)c3c(=O)c(-c4ccc(O)cc4)coc3c2)[C@H](O)[C@@H](O)[C@@H]1O [acetylgenistin, 6″-O-acetylgenistin] , report its Decomposition efficiency: ratio of each glycoside/aglycon within its isoflavone family.
44.7%

====

# System: Crude diglycosidase
# PROTOCOL_SUMMARY: Examination of substrate concentration in the conversion into isoflavone aglycons by diglycosidase using soybean materials;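 further: percent of the isoflavone family total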
# Type: biochemical, Penicillium multicolor IAM7153
# CONDITIONS: concentrated soybean protein, substrate concentration 30%, heat treatment of enzyme no, reaction time 6 h
TEST_READOUT: Decomposition efficiency: ratio of each glycoside/aglycon within its isoflavone family (%)
Field format: number, assumed %, no unit text.

Give Decomposition efficiency: ratio of each glycoside/aglycon within its isoflavone family (Crude diglycosidase) of the following molecule: COc1cc2c(=O)c(-c3ccc(O)cc3)coc2cc1O
71.4

Record lookup: for Crude diglycosidase, what Decomposition efficiency: ratio of each glycoside/aglycon within its isoflavone family belongs to COc1cc2c(=O)c(-c3ccc(O)cc3)coc2cc1O[C@@H]1O[C@H](COC(=O)CC(=O)O)[C@@H](O)[C@H](O)[C@H]1O ?
0.3

Form: Entry = COc1cc2c(=O)c(-c3ccc(O)cc3)coc2cc1O[C@@H]1O[C@H](COC(C)=O)[C@@H](O)[C@H](O)[C@H]1O | System = Crude diglycosidase | Decomposition efficiency: ratio of each glycoside/aglycon within its isoflavone family = ____
28.3
